The origin of these recorded values is the RepoRT retention time repository (doi:10.1016/j.jchromb.2020.122105).

test: RP, Waters ACQUITY UPLC BEH C18, 100 × 2.1 mm, 1.7 µm, 0.2 mL/min, estimated dead time 1.1 min; A: water + 0.025% formic acid + 20 mM ammonium acetate + 0.055% ammonium hydroxide, pH 7; B: methanol; gradient (min/%B) 0/5 5/5 25/100 30/100 30.1/5 35/5; conditions: stereoisomer not certain
measured-metric: LC retention time (min)
// note: answer is a bare numeric in min

Below, each entry is followed by its recorded LC retention time result.
| compound | LC retention time [min] |
| --- | --- |
| O=C(O)c1ccc2ccccc2c1[O-] [1-HYDROXY-2-NAPHTHOATE] | 14.1 |
| CC1NC(=O)NC1CCCCCC(=O)O (centres undefined) [DETHIOBIOTIN] | 8.17 |
| O=C([O-])CCc1ccccc1O [3-(2-HYDROXYPHENYL)PROPANOATE] | 6.28 |

Form field LC retention time, entry O=C(O)CCCCCCCC(=O)O [AZELAIC ACID] : 1.41

Form field LC retention time, entry Nc1ncnc2nc[nH]c12 [ADENINE] : 1.89

Form field LC retention time, entry CCOC(OCC)C(O)COP(=O)(O)O (centres undefined) [GLYCERALDEHYDE 3-PHOSPHATE DIETHYL ACETAL] : 1.41

Form field LC retention time, entry CC(C)=CC(=O)SCCNC(=O)CCNC(=O)C(O)C(C)(C)COP(=O)(O)OP(=O)(O)OCC1OC(n2cnc3c(N)ncnc32)C(O)C1OP(=O)(O)O (centres undefined) [3-METHYLCROTONYL-COA] : 8.78

Form field LC retention time, entry NCCC(=O)NC(Cc1cnc[nH]1)C(=O)O (centres undefined) [CARNOSINE] : 1.36

Form field LC retention time, entry Nc1nc2c(ncn2C2OC3COP(=O)(O)OC3C2O)c(=O)[nH]1 (centres undefined) [GUANOSINE 3',5'-CYCLIC MONOPHOSPHATE] : 1.41

Form field LC retention time, entry CSCCC(NC(C)=O)C(=O)O (racemic) [N-ACETYL-DL-METHIONINE] : 2.97

Form field LC retention time, entry COc1cc(C=CC(=O)O)ccc1O [FERULATE] : 1.78

Form field LC retention time, entry Nc1ncnc2c1ncn2C1CC(O)C(COP(=O)(O)O)O1 (centres undefined) [DAMP] : 1.36

Form field LC retention time, entry O=c1[nH]cnc2c1ncn2C1OC(CO)C(O)C1O (centres undefined) [INOSINE] : 1.41

Form field LC retention time, entry CC(=O)N[C@@H](Cc1ccccc1)C(=O)O [N-ACETYL-L-PHENYLALANINE] : 8.81

Form field LC retention time, entry CC(CCC(=O)O)C1CCC2C3C(O)CC4CC(O)CCC4(C)C3CC(O)C12C (centres undefined) [CHOLATE] : 19.6

Form field LC retention time, entry Nc1ccccc1S(=O)(=O)O [ANILINE-2-SULFONIC ACID] : 2.03

Form field LC retention time, entry CC(C)(CO)C(O)C(=O)NCCC(=O)O [D-PANTOTHENIC ACID] : 1.46

Form field LC retention time, entry Cc1cc2nc3c(=O)[nH]c(=O)nc-3n(CC(O)C(O)C(O)CO)c2cc1C (centres undefined) [RIBOFLAVIN] : 11.9

Form field LC retention time, entry O=c1[nH]c(=O)c2[nH]c(=O)[nH]c2[nH]1 [URATE] : 1.36
